Molecular target: Cytochrome P450 3A4 (Homo sapiens) (UniProt P08684)
Sequence (P08684 whole entry, looked up): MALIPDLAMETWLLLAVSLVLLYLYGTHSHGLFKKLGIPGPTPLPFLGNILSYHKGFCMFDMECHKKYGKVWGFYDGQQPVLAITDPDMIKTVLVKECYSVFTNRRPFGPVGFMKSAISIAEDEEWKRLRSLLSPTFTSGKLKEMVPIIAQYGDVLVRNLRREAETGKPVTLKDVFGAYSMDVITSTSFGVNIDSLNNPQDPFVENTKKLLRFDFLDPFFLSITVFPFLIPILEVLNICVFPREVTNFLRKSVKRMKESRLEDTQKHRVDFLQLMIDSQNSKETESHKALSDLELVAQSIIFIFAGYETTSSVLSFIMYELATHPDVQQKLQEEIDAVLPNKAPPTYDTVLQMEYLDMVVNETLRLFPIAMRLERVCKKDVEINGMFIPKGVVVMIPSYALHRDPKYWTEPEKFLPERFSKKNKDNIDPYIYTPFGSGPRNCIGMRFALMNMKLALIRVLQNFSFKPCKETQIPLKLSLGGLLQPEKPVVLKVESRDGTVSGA
Test: qHTS Assay for Activators of Cytochrome P450 3A4 (AID 885); further: nearly all actives have a fitted effect of over 65% in size
Settings: recombinant CYP3A4, Luciferin-PPXE luminescence, 60 min; series mostly up to 57.1 µM
Activity calls are given as the source filed them. The call rests on the fitted dose curve; in most records, active means well fitted activation curve with a large enough effect; inconclusive means small, poorly fitted or top-dose-only effect; inactive means no such curve, though single readings can be large or run the other way.
MEASURED ENDPOINT: activity change, positive = activation

INSERT INTO results (compound, assay_system, measured_endpoint, assay_value) VALUES
  ('COC(=O)c1ccc(C(NC(=O)OCc2ccccc2)/C(F)=C/[C@@H](C)C(=O)N[C@@H](CO)Cc2ccccc2)cc1 (some centres not stated)', 'Cytochrome P450 3A4 (Homo sapiens) (UniProt P08684)', 'activity change, positive = activation', 'inactive'),
  ('COCCNC(=O)C1(CC(C)C)C=CCN1C(=O)c1ccccc1 (configuration not stated)', 'Cytochrome P450 3A4 (Homo sapiens) (UniProt P08684)', 'activity change, positive = activation', 'inactive'),
  ('COC(=O)c1ccc(C(NC(=O)OCc2ccccc2)/C(F)=C/[C@@H](C)C(=O)NCc2cc(C)on2)cc1 (some centres not stated)', 'Cytochrome P450 3A4 (Homo sapiens) (UniProt P08684)', 'activity change, positive = activation', 'inactive'),
  ('C=C1CCC2C(CC2(C)C)C(=O)CCC1O (configuration not stated)', 'Cytochrome P450 3A4 (Homo sapiens) (UniProt P08684)', 'activity change, positive = activation', 'inactive'),
  ('CCC1=C2CC[C@H]3C(=O)NC(=O)[C@H]3[C@H]2[C@@]2(Cc3ccccc3)C(=NCC3CC3)OC(=O)N2C1=O', 'Cytochrome P450 3A4 (Homo sapiens) (UniProt P08684)', 'activity change, positive = activation', 'inactive'),
  ('CCCNC(=O)OC[C@@H]1O[C@H](c2ccccc2)C=C[C@@H]1Oc1ccc(OC)cc1', 'Cytochrome P450 3A4 (Homo sapiens) (UniProt P08684)', 'activity change, positive = activation', '-82.9% [at 11.4 µM] (inactive)'),
  ('COc1ccc(O[C@H]2C=C[C@@H](c3ccccc3)O[C@@H]2CO/N=C(\C)CCN2CCCc3nc(C)c(C)cc32)cc1', 'Cytochrome P450 3A4 (Homo sapiens) (UniProt P08684)', 'activity change, positive = activation', '-63.6% [at 11.4 µM] (inactive)'),
  ('CC(=O)OC1CC2C(C)(C)C(=O)CC[C@]2(C)C2CC[C@]3(C)C(=CC(=O)OC3c3ccoc3)[C@]12C (some centres not stated)', 'Cytochrome P450 3A4 (Homo sapiens) (UniProt P08684)', 'activity change, positive = activation', 'inactive'),
  ('COCCNC(=O)[C@H](C)[C@@H]1C[C@@]1(C)[C@@H](NC(=O)OCc1ccccc1)c1ccccc1', 'Cytochrome P450 3A4 (Homo sapiens) (UniProt P08684)', 'activity change, positive = activation', 'inactive'),
  ('COC(=O)C/C=C\[C@@H](C)[C@@H](/C=N\OC[C@@H](C)[C@H](OCc1ccccc1)C(C)C)OC', 'Cytochrome P450 3A4 (Homo sapiens) (UniProt P08684)', 'activity change, positive = activation', '-33% [at 11.4 µM] (inactive)'),
  ('COC(C1CCCCC1)C(C)C(OCc1cccc(Br)c1)C(C)CO (configuration not stated)', 'Cytochrome P450 3A4 (Homo sapiens) (UniProt P08684)', 'activity change, positive = activation', '-47.3% [at 11.4 µM] (inactive)'),
  ('COCCNC(=O)C1(CC(C)C)C=CCN1C(=O)OC (configuration not stated)', 'Cytochrome P450 3A4 (Homo sapiens) (UniProt P08684)', 'activity change, positive = activation', 'inactive'),
  ('COC(=O)[C@H](Cc1ccccc1)NC(=O)[C@]1(C)C[C@H]1[C@H](NC(=O)OCc1ccccc1)c1ccccc1', 'Cytochrome P450 3A4 (Homo sapiens) (UniProt P08684)', 'activity change, positive = activation', 'inactive'),
  ('COC(=O)C1=C(C)N(Cc2ccccc2)[C@]23O[C@](C(=O)OC)(C(=O)N2C1c1ccccc1)C(C(=O)OC)=C3C(=O)OC (some centres not stated)', 'Cytochrome P450 3A4 (Homo sapiens) (UniProt P08684)', 'activity change, positive = activation', '-58% [at 11.4 µM] (inactive)'),
  ('C=CCc1cccc(C2C(C)CCC3C(=O)N4C(Cc5c([nH]c6ccccc56)C4c4cc(OC)c(OC)c(OC)c4)C(=O)N32)c1 (configuration not stated)', 'Cytochrome P450 3A4 (Homo sapiens) (UniProt P08684)', 'activity change, positive = activation', '-74.3% [at 11.4 µM] (inactive)'),
  ('COC(=O)c1ccc(C(NC(=O)OCc2ccccc2)/C(I)=C/[C@@H](C)C(=O)NCC2CC2)cc1 (some centres not stated)', 'Cytochrome P450 3A4 (Homo sapiens) (UniProt P08684)', 'activity change, positive = activation', 'inactive'),
  ('CC[C@@H]1CN2CCc3cc(OC)c(OC)cc3[C@@H]2C[C@@H]1C[C@H]1NCCc2cc(OC)c(OC)cc21', 'Cytochrome P450 3A4 (Homo sapiens) (UniProt P08684)', 'activity change, positive = activation', 'inactive');
